Kindly supply the reported Relative to AgNO3 values for the records listed here.
system: Staphylococcus aureus (ATCC 25923); experiment: Minimum inhibitory concentration in LB broth, S. aureus; format: cell-based; details: efficacy per mole from MIC values
Give only the figure.

Returns the measured Relative to AgNO3 for the input compound. Input: Fc1cccc(C(F)(F)F)c1N=C(N=C(Nc1c(F)cccc1C(F)(F)F)C(F)(F)C(F)(F)C(F)(F)F)C(F)(F)C(F)(F)C(F)(F)F [[N{(C3F7)C(2-F,6-(CF3)C6H3)N}2]H]
34.71

Returns the measured Relative to AgNO3 for the input compound. Input: FC(F)(F)C(F)(F)C(F)(F)C(=Nc1c(Cl)cccc1Cl)N=C([N]([Ag])c1c(Cl)cccc1Cl)C(F)(F)C(F)(F)C(F)(F)F [[N{(C3F7)C(2,6-Cl2C6H3)N}2]Ag]
69.43

Returns the measured Relative to AgNO3 for the input compound. Input: FC(F)(F)C(F)(F)C(F)(F)C(=Nc1c(Cl)cccc1Cl)N=C(Nc1c(Cl)cccc1Cl)C(F)(F)C(F)(F)C(F)(F)F [[N{(C3F7)C(2,6-Cl2C6H3)N}2]H]
6.57

Returns the measured Relative to AgNO3 for the input compound. Input: O=[N+]([O-])[O-].[Ag+] [AgNO3, reference compound]
1.00

Returns the measured Relative to AgNO3 for the input compound. Input: Fc1c(F)c(F)c(N=C(N=C([N]([Ag])c2c(F)c(F)c(F)c(F)c2F)C(F)(F)C(F)(F)C(F)(F)F)C(F)(F)C(F)(F)C(F)(F)F)c(F)c1F [[N{(C3F7)C(C6F5)N}2]Ag]
34.45

Returns the measured Relative to AgNO3 for the input compound. Input: Fc1cccc(C(F)(F)F)c1N=C(N=C([N]([Ag])c1c(F)cccc1C(F)(F)F)C(F)(F)C(F)(F)C(F)(F)F)C(F)(F)C(F)(F)C(F)(F)F [[N{(C3F7)C(2-F,6-CF3C6H3)N}2]Ag]
70.10

Returns the measured Relative to AgNO3 for the input compound. Input: Fc1c(F)c(F)c(N=C(N=C(Nc2c(F)c(F)c(F)c(F)c2F)C(F)(F)C(F)(F)C(F)(F)F)C(F)(F)C(F)(F)C(F)(F)F)c(F)c1F [[N{(C3F7)C(C6F5)N}2]H]
34.71

----------
Kindly supply the reported Diameter of the zone of growth inhibition values for the records listed here.
tested on: Bacillus subtilis W168; experiment: Disk sensitivity test (modified Kirby-Bauer), B. subtilis; assay type: cell-based; settings: 5.7 × 10^−7 mM;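 note: Compound-loaded filter disks on LB agar plates seeded with a bacterial lawn, plates held overnight at 37 °C, then the clear zone around each disk measured, compounds in DMSO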

Returns the measured Diameter of the zone of growth inhibition for the input molecule. Input: Fc1cccc(C(F)(F)F)c1N=C(N=C([N]([Ag])c1c(F)cccc1C(F)(F)F)C(F)(F)C(F)(F)C(F)(F)F)C(F)(F)C(F)(F)C(F)(F)F [[N{(C3F7)C(2-F,6-CF3C6H3)N}2]Ag]
7.5 mm

Returns the measured Diameter of the zone of growth inhibition for the input molecule. Input: Fc1c(F)c(F)c(N=C(N=C(Nc2c(F)c(F)c(F)c(F)c2F)C(F)(F)C(F)(F)C(F)(F)F)C(F)(F)C(F)(F)C(F)(F)F)c(F)c1F [[N{(C3F7)C(C6F5)N}2]H]
6.0 (NZ) mm

Returns the measured Diameter of the zone of growth inhibition for the input molecule. Input: Fc1cccc(C(F)(F)F)c1N=C(N=C(Nc1c(F)cccc1C(F)(F)F)C(F)(F)C(F)(F)C(F)(F)F)C(F)(F)C(F)(F)C(F)(F)F [[N{(C3F7)C(2-F,6-(CF3)C6H3)N}2]H]
7.5 mm

Returns the measured Diameter of the zone of growth inhibition for the input molecule. Input: FC(F)(F)C(F)(F)C(F)(F)C(=Nc1c(Cl)cccc1Cl)N=C(Nc1c(Cl)cccc1Cl)C(F)(F)C(F)(F)C(F)(F)F [[N{(C3F7)C(2,6-Cl2C6H3)N}2]H]
6.0 (NZ) mm
